# Test system: A549 NSCLC
# Procedure summary: NCI tumour cell line growth inhibition, 48 h
Quantity kind: TGI (µM)
Write it as a number; the unit µM goes unstated.

Exercise: Dear colleague, I am looking for the recorded TGI of the following molecule: CC(C)n1c(=O)n(C)c2cnc3cc(F)c(-c4ccc(OCCCN5CCCCC5)nc4)cc3c21
Solution: 63.9

Exercise: Dear colleague, I am looking for the recorded TGI of the following molecule: COc1ccc(-c2nc(N3CCOCC3)c3sc(CN(C)c4ncc(C(=O)NO)cn4)cc3n2)cn1
Solution: 0.0625

Exercise: Dear colleague, I am looking for the recorded TGI of the following molecule: COc1cc(/C=C2\C(=O)N(c3ccccc3)c3ccccc32)cc(OC)c1OC
Solution: 40.9

Exercise: Dear colleague, I am looking for the recorded TGI of the following molecule: Cc1ccc(-c2nc(N)c(C#N)c3c2CCOc2c-3ccc3ccccc23)cc1
Solution: 22.9

Exercise: Dear colleague, I am looking for the recorded TGI of the following molecule: O=C1CCC(N2Cc3c(C#CCCCNC(=O)c4cc5c(o4)C(=O)c4ccccc4C5=O)cccc3C2=O)C(=O)N1 (stereo not given)
Solution: 32.9

Exercise: Dear colleague, I am looking for the recorded TGI of the following molecule: Cc1ccc(C(=O)C#Cc2c[nH]c(=O)[nH]c2=O)cc1
Solution: 39.8

Exercise: Dear colleague, I am looking for the recorded TGI of the following molecule: O=C(O)c1c[nH]c2c(OCc3ccccc3)c3ccccc3c(O)c2c1=O
Solution: 30.7

Exercise: Dear colleague, I am looking for the recorded TGI of the following molecule: CNCCCNC1(c2cc3ccccc3s2)CCCCC1
Solution: 20.4
